Consider the following compounds; for each one, report its efflux ratio at 120 min, 1 µM.
assay target: human BCRP (Homo sapiens, UniProt Q9UNQ0)
Sequence (Q9UNQ0 1-655): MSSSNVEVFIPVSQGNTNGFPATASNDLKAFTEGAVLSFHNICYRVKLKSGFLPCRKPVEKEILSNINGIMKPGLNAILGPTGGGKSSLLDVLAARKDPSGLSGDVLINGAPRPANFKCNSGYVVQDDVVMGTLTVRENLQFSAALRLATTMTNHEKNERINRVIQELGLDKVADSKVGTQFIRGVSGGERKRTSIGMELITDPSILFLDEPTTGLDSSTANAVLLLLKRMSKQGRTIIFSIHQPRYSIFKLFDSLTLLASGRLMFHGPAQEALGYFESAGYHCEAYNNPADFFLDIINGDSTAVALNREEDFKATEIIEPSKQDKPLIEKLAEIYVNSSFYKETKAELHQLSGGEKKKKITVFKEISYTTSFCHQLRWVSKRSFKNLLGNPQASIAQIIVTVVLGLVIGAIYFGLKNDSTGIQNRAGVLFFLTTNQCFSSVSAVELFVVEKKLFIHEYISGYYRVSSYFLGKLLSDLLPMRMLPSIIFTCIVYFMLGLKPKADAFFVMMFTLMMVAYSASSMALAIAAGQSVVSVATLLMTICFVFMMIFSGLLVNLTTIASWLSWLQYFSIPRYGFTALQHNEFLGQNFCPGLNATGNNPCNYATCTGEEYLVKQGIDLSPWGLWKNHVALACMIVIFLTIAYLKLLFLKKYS
assay remarks: in vitro
condition info: human, pH 7.4
Answers are plain numbers.

Observe how each entry below is paired with its result.
• CC(C)C[C@H]1C(=O)N2CCC[C@H]2[C@]2(O)O[C@](NC(=O)[C@@H]3C=C4c5cccc6[nH]c(Br)c(c56)C[C@H]4N(C)C3)(C(C)C)C(=O)N12 [Bromocriptine] = 0.52
• COc1cc(Cc2cnc(N)nc2N)cc(OC)c1OC [Trimethoprim] = 3.08
• CC(C)(C)c1ccc(C(O)CCCN2CCC(C(O)(c3ccccc3)c3ccccc3)CC2)cc1 (stereo not drawn) [Terfenadine] = 2.96
• Cc1nccn1CC1CCc2c(c3ccccc3n2C)C1=O (stereo not drawn) [Ondansetron] = 4.28
• COc1ccccc1OCCNCC(O)COc1cccc2[nH]c3ccccc3c12 (stereo not drawn) [Carvedilol] = 2.38
• N=C(N)NC(=O)Cc1c(Cl)cccc1Cl [Guanfacine] = 0.32
• Nc1c2c(nc3ccccc13)CCCC2 [Tacrine] = 1.19
• CC(=O)CC(c1ccccc1)c1c(O)c2ccccc2oc1=O (stereo not drawn) [Warfarin] = 4.03

Ask: efflux ratio at 120 min, 1 µM lookup needed for COc1cc2ncnc(Nc3ccc(F)c(Cl)c3)c2cc1OCCCN1CCOCC1 [Gefitinib] , thanks.
Reply: 45.1

###

So I've got a bunch of compounds here, and I need their efflux ratio at 120 min, 1 µM values.
assay target: UniProt:P08183
Sequence (P08183 whole entry): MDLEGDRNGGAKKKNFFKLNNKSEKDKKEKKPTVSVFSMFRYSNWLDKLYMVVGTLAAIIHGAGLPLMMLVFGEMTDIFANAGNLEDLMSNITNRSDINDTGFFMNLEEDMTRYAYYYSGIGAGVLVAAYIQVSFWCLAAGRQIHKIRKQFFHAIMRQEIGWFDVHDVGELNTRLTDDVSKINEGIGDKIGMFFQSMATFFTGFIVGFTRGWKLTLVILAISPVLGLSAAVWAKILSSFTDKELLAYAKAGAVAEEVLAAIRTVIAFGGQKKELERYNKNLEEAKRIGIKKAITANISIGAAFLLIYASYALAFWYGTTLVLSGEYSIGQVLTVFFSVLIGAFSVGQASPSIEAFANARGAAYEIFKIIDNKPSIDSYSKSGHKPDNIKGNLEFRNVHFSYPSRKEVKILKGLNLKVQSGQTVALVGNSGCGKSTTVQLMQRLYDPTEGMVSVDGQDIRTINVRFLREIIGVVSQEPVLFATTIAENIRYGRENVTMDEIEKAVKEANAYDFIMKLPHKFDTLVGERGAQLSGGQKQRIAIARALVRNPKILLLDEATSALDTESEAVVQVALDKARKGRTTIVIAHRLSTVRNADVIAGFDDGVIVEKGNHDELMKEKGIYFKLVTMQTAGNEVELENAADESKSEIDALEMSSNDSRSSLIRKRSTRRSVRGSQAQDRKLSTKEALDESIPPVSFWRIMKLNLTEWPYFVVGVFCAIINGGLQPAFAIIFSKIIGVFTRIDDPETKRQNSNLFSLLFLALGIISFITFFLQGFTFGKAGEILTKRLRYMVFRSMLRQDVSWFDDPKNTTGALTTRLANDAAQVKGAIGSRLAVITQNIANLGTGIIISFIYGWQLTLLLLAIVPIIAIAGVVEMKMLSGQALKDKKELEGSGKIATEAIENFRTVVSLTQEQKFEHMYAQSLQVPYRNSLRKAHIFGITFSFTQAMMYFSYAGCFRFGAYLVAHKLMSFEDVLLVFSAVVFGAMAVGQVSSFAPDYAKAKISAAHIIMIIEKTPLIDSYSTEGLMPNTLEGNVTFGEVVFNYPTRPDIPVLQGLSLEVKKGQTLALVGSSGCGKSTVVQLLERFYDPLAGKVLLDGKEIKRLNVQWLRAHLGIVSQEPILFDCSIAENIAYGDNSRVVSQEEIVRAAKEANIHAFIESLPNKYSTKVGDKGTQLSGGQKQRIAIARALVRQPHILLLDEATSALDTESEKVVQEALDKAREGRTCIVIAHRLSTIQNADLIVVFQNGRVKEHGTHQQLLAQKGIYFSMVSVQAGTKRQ
assay remarks: Bidirectional transport assay, efflux ratio in Abcb1KO-MDCKII hMDR1 cells
condition info: human, MDCK-MDR1, pH 7.4

Recorded efflux ratio at 120 min, 1 µM, per entry:
* COCCc1ccc(OCC(O)CNC(C)C)cc1 (centres unmarked) | 1.53
* CC(C)(C)c1ccc(C(O)CCCN2CCC(C(O)(c3ccccc3)c3ccccc3)CC2)cc1 (centres unmarked) | 10.7
* CC(C)NCC(O)COc1cccc2ccccc12 (centres unmarked) | 0.88
* COc1cccc2c1C(=O)c1c(O)c3c(c(O)c1C2=O)C[C@@](O)(C(C)=O)C[C@@H]3O[C@H]1C[C@H](N)[C@H](O)[C@H](C)O1 | 21.7
* COc1cc2nc(N3CCN(C(=O)c4ccco4)CC3)nc(N)c2cc1OC | 9.35

Provide reported efflux ratio at 120 min, 1 µM for each item, in the same order as listed.
1. COc1cc([C@@H]2c3cc4c(cc3[C@@H](O[C@@H]3O[C@@H]5CO[C@@H](C)O[C@H]5[C@H](O)[C@H]3O)[C@H]3COC(=O)[C@H]23)OCO4)cc(OC)c1O [Etoposide]
2. COc1ccc(CCN2CCC(Nc3nc4ccccc4n3Cc3ccc(F)cc3)CC2)cc1
3. Clc1cccc(Cl)c1N=C1NCCN1

Reply:
1. 11.2
2. 12.2
3. 0.78
